Target: Bifunctional dihydrofolate reductase-thymidylate synthase [1-238,S58R,S117N] (Plasmodium vivax, UniProt O02604, S117N/S58R)
Construct: 1-238
Sequence (O02604 1-238, looked up, stated change not applied): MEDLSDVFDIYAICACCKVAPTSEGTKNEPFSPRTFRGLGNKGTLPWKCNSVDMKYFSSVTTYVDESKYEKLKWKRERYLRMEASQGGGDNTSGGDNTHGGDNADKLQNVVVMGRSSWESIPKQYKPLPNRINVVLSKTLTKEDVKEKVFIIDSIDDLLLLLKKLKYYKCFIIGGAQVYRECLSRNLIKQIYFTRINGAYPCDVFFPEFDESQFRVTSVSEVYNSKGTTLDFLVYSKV
Experiment: Inhibitor Screening Using Bacterial System (IC50) and Measurement of Inhibition Constant (Ki)
Param label: returns 1 when Ki < 7 nM, returns -1 otherwise, including exact equality.

Some entries whose results are on file:
Sample Smiles: CCc1nc(N)nc(N)c1-c1ccc(C)cc1
Label Value: 1
//
Sample Smiles: CCc1nc(N)nc(N)c1-c1ccc(OC)cc1
Label Value: -1
//
Sample Smiles: Cc1nc(N)nc(N)c1-c1ccccc1
Label Value: -1
//
Sample Smiles: CCc1nc(N)nc(N)c1-c1ccc(Cl)c(Cl)c1
Label Value: 1
//
Sample Smiles: COC(=O)CCCc1nc(N)nc(N)c1-c1ccc(Cl)cc1
Label Value: -1
//
Sample Smiles: CCc1nc(N)nc(N)c1-c1ccccc1
Label Value: 1
//
Sample Smiles: Nc1ncc(-c2ccc(Cl)cc2)c(N)n1
Label Value: -1
//
Sample Smiles: CC(C)Cc1nc(N)nc(N)c1-c1ccc(Cl)cc1
Label Value: -1

Quick check: Ki of "Nc1nc(N)c(-c2ccccc2)c(CCCc2ccccc2)n1" under 7 nM?
1

Ki strictly < 7 nM for this compound? "Nc1nc(N)c(-c2cccc(Cl)c2)c(CCCc2ccccc2)n1"
1

Would you kindly verify if Ki of "CCc1nc(N)nc(N)c1-c1ccc(Cl)cc1" is strictly less than 7 nM?
1

State whether 7 nM exceeds Ki recorded for "Nc1nc(N)c(-c2cccc(Cl)c2)c(CCOCCCOc2ccccc2)n1" .
1

* * *

Molecular target: Bifunctional dihydrofolate reductase-thymidylate synthase (Plasmodium vivax, UniProt O02604)
Sequence (O02604 whole entry): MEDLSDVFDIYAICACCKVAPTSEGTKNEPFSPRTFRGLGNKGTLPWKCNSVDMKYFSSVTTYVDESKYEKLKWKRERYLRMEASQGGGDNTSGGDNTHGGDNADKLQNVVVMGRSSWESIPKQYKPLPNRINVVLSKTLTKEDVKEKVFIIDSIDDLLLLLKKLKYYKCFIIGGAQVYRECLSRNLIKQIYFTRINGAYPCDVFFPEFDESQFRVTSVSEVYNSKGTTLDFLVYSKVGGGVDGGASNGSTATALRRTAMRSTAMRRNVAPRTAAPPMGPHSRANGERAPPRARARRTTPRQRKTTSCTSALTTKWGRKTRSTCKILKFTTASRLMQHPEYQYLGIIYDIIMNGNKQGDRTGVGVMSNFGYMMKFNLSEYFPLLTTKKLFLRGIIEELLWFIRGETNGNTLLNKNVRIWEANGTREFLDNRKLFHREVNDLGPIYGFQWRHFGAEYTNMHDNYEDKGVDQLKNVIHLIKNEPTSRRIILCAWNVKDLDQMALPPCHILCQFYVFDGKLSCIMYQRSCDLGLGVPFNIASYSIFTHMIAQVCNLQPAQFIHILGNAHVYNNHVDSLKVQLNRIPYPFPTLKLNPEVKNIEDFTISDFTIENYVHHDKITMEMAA
Test: Inhibitor Screening Using Bacterial System (IC50) and Measurement of Inhibition Constant (Ki)
Details: pH 7; 25 °C
Measured Quantity: pIC50
Numbers only, as −log10 of the molar value.

Sample Smiles: Nc1nc(N)c(-c2cccc(Cl)c2)c(CCCc2ccccc2)n1
Result Value: 5.62

Sample Smiles: Nc1nc(N)c(-c2cccc(Cl)c2)c(CCOCCCOc2ccccc2)n1
Result Value: 5.64

Sample Smiles: CCc1nc(N)nc(N)c1-c1ccc(Cl)c(Cl)c1
Result Value: 7.15

Sample Smiles: Nc1nc(N)c(-c2ccccc2)c(CCCc2ccccc2)n1
Result Value: 6.10

Sample Smiles: Nc1ncc(-c2ccc(Cl)cc2)c(N)n1
Result Value: 5.82

Sample Smiles: CCCCCCc1nc(N)nc(N)c1-c1ccccc1
Result Value: 6.64

Sample Smiles: CC(C)Cc1nc(N)nc(N)c1-c1ccc(Cl)cc1
Result Value: 6.66

Sample Smiles: CCc1nc(N)nc(N)c1-c1ccc(Br)cc1
Result Value: 7.05

Sample Smiles: CCCCCCCCCc1nc(N)nc(N)c1-c1ccc(Cl)cc1
Result Value: 5.66

Sample Smiles: CCc1nc(N)nc(N)c1-c1ccccc1
Result Value: 5.74

Now let's try a different one.
Which pIC50 reading was recorded for the molecule "CCc1nc(N)nc(N)c1-c1ccc(C(C)(C)C)cc1" ?
5.75

* * *

Target: Bifunctional dihydrofolate reductase-thymidylate synthase [1-238,S58R,S117N] (Plasmodium vivax, UniProt O02604, S117N/S58R)
Construct: 1-238
Test: Inhibitor Screening Using Bacterial System (IC50) and Measurement of Inhibition Constant (Ki)
pKi: −log10 of the molar value.
Outcome: MET for pKi of at least 8; NOT MET for anything lower.

Completed entries (count: 5):
Compound: Cc1nc(N)nc(N)c1-c1cccc(Cl)c1
Label Value: MET

Compound: CCCCCCCCCc1nc(N)nc(N)c1-c1ccc(Cl)cc1
Label Value: NOT MET

Compound: CCc1nc(N)nc(N)c1-c1cccc(Cl)c1
Label Value: MET

Compound: CCCCCCc1nc(N)nc(N)c1-c1ccccc1 [6-hexyl-5-phenylpyrimidine-2,4-diamine]
Label Value: MET

Compound: Cc1nc(N)nc(N)c1-c1ccc(Cl)cc1
Label Value: NOT MET

Now look at this entry.
Could you tell me if the measured pKi of "CCc1nc(N)nc(N)c1-c1ccc(C(C)(C)C)cc1" reaches 8 or more?
NOT MET
